Data origin: paper PMC4336329

molecular target: human ether-à-go-go-related gene (hERG) potassium channel (human, UniProt Q12809); assay: primary screen, population patch clamp on CHO cells stably expressing hERG; higher = less effect of the substance;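 also: peak tail current of the secondary pulse compared with the same well before compound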
Sequence (Q12809 whole entry, looked up): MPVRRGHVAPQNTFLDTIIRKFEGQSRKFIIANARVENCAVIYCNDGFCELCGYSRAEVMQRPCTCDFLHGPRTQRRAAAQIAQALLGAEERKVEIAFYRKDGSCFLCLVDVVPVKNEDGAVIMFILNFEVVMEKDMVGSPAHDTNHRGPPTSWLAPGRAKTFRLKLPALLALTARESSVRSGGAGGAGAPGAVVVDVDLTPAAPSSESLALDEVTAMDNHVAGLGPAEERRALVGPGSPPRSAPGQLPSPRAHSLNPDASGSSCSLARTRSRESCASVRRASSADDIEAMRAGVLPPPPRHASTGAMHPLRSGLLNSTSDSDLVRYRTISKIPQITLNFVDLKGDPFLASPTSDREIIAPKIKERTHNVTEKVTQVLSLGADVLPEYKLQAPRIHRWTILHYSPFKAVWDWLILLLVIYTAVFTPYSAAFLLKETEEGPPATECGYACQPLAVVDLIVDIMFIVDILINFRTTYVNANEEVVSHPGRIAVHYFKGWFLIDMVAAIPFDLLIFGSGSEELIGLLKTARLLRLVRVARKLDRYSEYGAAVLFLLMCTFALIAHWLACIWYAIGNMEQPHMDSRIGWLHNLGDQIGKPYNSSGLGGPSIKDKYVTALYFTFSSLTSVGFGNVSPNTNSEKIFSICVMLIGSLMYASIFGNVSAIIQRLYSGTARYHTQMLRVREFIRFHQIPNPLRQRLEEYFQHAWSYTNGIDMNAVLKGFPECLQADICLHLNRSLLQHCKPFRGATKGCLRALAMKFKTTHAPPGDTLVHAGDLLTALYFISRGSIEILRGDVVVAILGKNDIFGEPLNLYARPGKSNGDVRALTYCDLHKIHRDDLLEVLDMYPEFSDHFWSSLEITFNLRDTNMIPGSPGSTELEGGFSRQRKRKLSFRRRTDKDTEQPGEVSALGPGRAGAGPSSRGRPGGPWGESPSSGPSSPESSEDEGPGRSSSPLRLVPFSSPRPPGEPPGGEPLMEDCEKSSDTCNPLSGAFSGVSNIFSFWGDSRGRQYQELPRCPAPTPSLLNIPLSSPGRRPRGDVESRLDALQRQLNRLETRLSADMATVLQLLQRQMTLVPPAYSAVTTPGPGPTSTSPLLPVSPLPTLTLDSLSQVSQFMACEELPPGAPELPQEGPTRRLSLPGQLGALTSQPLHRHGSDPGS
Hit rate of the full screen: of about 310,000 compounds, about 14,000 (4.5%) showed an effect of 50% or more. Effects have a minus sign here. Only a selection was taken, and strong results are over-represented in it overall.
measured_property: hERG current change (%, negative = inhibition) at 10uM

Here is how some compounds turned out for hERG current change (%, negative = inhibition) at 10uM.
[[record]]
compound = "CC(C)C(c1nnnn1Cc1ccccc1)N1CCN(Cc2ccco2)CC1.Cl (centres unmarked)"
reported_value = "-32.1%"

[[record]]
compound = "Cl.Fc1ccccc1C(c1nnnn1Cc1ccc2c(c1)OCO2)N1CCN(Cc2ccco2)CC1 (centres unmarked)"
reported_value = "-56.4%"

[[record]]
compound = "CCCCC(CC(C)O)c1n[nH]c(=S)n1-c1ccccc1 (centres unmarked)"
reported_value = "3.1%"

[[record]]
compound = "COC(=O)c1ccc(-c2noc(CN(C)CC3CCCCO3)n2)cc1 (centres unmarked)"
reported_value = "11.3%"


Query: Quick one: hERG current change (%, negative = inhibition) at 10uM of O=C(NC(=O)c1ccccc1F)Nc1nc(-c2cccs2)cc(C(F)(F)F)n1 ?
Response: 4.49%

---

target: human ether-à-go-go-related gene (hERG) potassium channel (human, UniProt Q12809); assay: primary screen, population patch clamp on CHO cells stably expressing hERG; higher = less effect of the substance;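 also: peak tail current of the secondary pulse compared with the same well before compound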
The campaign covered roughly 310,000 compounds. About 14,000 (4.5%) showed an effect of 50% or more. Effects have a minus sign here. For the sample, strong results were picked, then their nearest neighbours and some compounds at random.
measured_property: hERG current change (%, negative = inhibition) at 10uM (%)
Write the number in % without appending the unit.

[[record]]
smiles_data = "O=C1c2ccccc2C(=O)N1CCN1CCCCC1"
experimental_system = "human ether-à-go-go-related gene (hERG) potassium channel (human, UniProt Q12809)"
uom = "%"
reported_value = -6.2


Query: Quick one: hERG current change (%, negative = inhibition) at 10uM of CCN(CC)c1cc(C)c2cc(NC(=O)c3cccs3)ccc2n1 ?
Response: -72.2

Query: Try O=c1c2ccccc2ncn1CCOCCOc1ccc([N+](=O)[O-])cc1 next.
Response: -64.3

Query: Try COc1ccc(S(=O)(=O)N2CCCCC2)cc1NC(=O)CSc1ncnc2ccccc12 next.
Response: -51.2

Query: Try O=C(CSc1ncnc2ccccc12)Nc1cc(S(=O)(=O)N2CCCCC2)ccc1Cl next.
Response: 14.4

Query: Try c1ccc(OCCn2cnc3ccccc32)cc1 next.
Response: -9.08

Query: Try COc1ccc(S(=O)(=O)N2CCOCC2)cc1NC(=O)CSc1ccccc1 next.
Response: -53.9

Query: Try CCN(CC)c1cc(C)c2cc(NC(=O)c3ccccc3F)ccc2n1 next.
Response: -81.3

---

target: human ether-à-go-go-related gene (hERG) potassium channel (human, UniProt Q12809); experiment: primary screen, population patch clamp on CHO cells stably expressing hERG; higher = less effect of the substance;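 also: peak tail current of the secondary pulse compared with the same well before compound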
Hit rate of the full screen: of about 310,000 compounds, about 14,000 (4.5%) showed an effect of 50% or more. Effects have a minus sign here. Many of the other results were omitted from the sample, so strong results are more common in it than they were.
Examples of molecules with documented hERG current change (%, negative = inhibition) at 10uM follow.
Write the number in % without appending the unit.

Here is how some molecules turned out for hERG current change (%, negative = inhibition) at 10uM.
[[record]]
molecule = "CC1=C(C(=O)OCc2ccccc2)C(c2ccsc2)C(C#N)=C(N)O1 (centres unmarked)"
reported_value = -6.93

[[record]]
molecule = "Cc1ccc(C2=NN(CC(=O)NCCN(C)C)C(=O)CC2)cc1"
reported_value = -44.9

[[record]]
molecule = "CC(NCc1cccc(OCc2ccccc2)c1)C(O)c1ccccc1.Cl (centres unmarked)"
reported_value = -50.9

[[record]]
molecule = "O=C(CCCN1CCC(C(=O)c2ccc(F)cc2)CC1)c1ccc(F)cc1"
reported_value = -78.5

[[record]]
molecule = "CCCCN(C)CCCNC(=O)CN1N=C(c2ccc(Cl)cc2)CCC1=O"
reported_value = -56.7

[[record]]
molecule = "O=C(CN1CCC(NC(=O)c2ccccc2)CC1)NCc1ccccc1F"
reported_value = -20.6

[[record]]
molecule = "COc1ccc(NC(=O)c2ccc([N+](=O)[O-])o2)cc1"
reported_value = 11.1

[[record]]
molecule = "CC(NCc1ccc(Cl)cc1Cl)C(O)c1ccccc1.Cl (centres unmarked)"
reported_value = -26.6

[[record]]
molecule = "C=CCNC(=O)CN1N=C(c2ccc(C)cc2)CCC1=O"
reported_value = -44.3

[[record]]
molecule = "CC(C)CCNC(=O)CN1N=C(c2ccc(Cl)cc2)CCC1=O"
reported_value = -15.8


Query: Quick one: hERG current change (%, negative = inhibition) at 10uM of CCC(C)C(NC(=O)CCCNC(=O)CCC(=O)OC1O[C@H]2OC3(C)CC[C@H]4[C@H](C)CCC(C1C)C24OO3)C(=O)O (some centres unmarked) ?
Response: 4.12

Query: Try Cc1ccc(C2=NN(CC(=O)NCCC(C)C)C(=O)CC2)cc1 next.
Response: 4.58

Query: Try CCOC(=O)Cc1csc(NC(=O)C(NC(=O)C2CCC(C)CC2)C(C)C)n1 (centres unmarked) next.
Response: 23.5

Query: Try C[C@]12CCC(=O)C=C1CCC1C2CC[C@@]2(C)C1CC[C@@]2(O)CC#N (some centres unmarked) next.
Response: -59.8

Query: Try Cc1ccc(C2=NN(CC(=O)O)C(=O)CC2)cc1 next.
Response: -51.4

Query: Try CCN(CC)C(=O)N1CCC(NC(=O)c2ccccc2)CC1 next.
Response: 12.6
